- Test system: SNB-19 CNS
- assay_overview: NCI tumour cell line growth inhibition, 48 h
# Lookup of reported TGI keyed by entry
The figure you give is taken to be in µM; do not add the unit.

[[record]]
molecule = "COc1ccc(C(=O)/C=C/SC(=NC#N)SC)cc1"
units_of_measure = "µM"
reading = 35.2

[[record]]
molecule = "CC(C)c1ccc(NC(=O)Cc2ccc(Nc3ncnc4cc(-c5cnn(CCN(C)C)c5)ccc34)cc2)cc1"
units_of_measure = "µM"
reading = 3.39

[[record]]
molecule = "O=C(/C=C/C12c3ccccc3C(c3ccccc31)C1C(=O)NC(=O)C12)c1ccccc1 (stereo not given)"
units_of_measure = "µM"
reading = 3.34

[[record]]
molecule = "O=C(NC(C(F)(F)F)(C(F)(F)F)P(=O)(Cc1ccccc1)Cc1ccccc1)C(C(F)(F)F)C(F)(F)F"
units_of_measure = "µM"
reading = 59.4


Bench note: what TGI did `CCCCn1c(=O)c(/C=C/C(=O)/C=C/c2cc3ccccc3n(CCCC)c2=O)cc2ccccc21` show? 3.24

* * *

- Test system: SR leukemia
- assay_overview: NCI tumour cell line growth inhibition, 48 h
Each entry below carries its reported TGI.

Consider the reported TGI for these compounds:
[[record]]
compound = "COc1cc(C(=O)c2cocc2C(=O)c2ccc3c(c2)OCO3)cc(OC)c1OC"
metric = "TGI"
reading = "> 56.2 µM"

[[record]]
compound = "COc1ccc(C2c3cc4c(cc3OC(Nc3ccccc3)C2C)OCO4)cc1 (stereo unspecified)"
metric = "TGI"
reading = "9.18 µM"

[[record]]
compound = "C[C@H]1[C@H](C)CC[C@]2(C(=O)OC3OC(CO)C(O)C(O)C3O)CC[C@]3(C)C(=CC[C@@H]4[C@@]5(C)C[C@@H](O)[C@@H]6OC(=O)c7cc(O)c(O)c(O)c7-c7c(cc(O)c(O)c7O)C(=O)OC[C@@]6(CO)[C@@H]5CC[C@]43C)[C@H]12 (stereo partly specified)"
metric = "TGI"
reading = "> 100 µM"

[[record]]
compound = "CC(C)(C)/C(O)=C\\c1nc2cc(F)c(F)cc2[nH]c1=O"
metric = "TGI"
reading = "> 100 µM"

[[record]]
compound = "Cc1ncc(CI)c(CI)c1O"
metric = "TGI"
reading = "36.7 µM"


Look up TGI for this compound: `Cc1cc(S(=O)(=O)N=C2Nc3cccc4cccc(c34)N2)c(S)cc1Cl` > 100 µM

* * *

- System: SF-539 CNS
- assay_overview: NCI tumour cell line growth inhibition, 48 h
Param threshold (30 µM) applies to TGI; output Satisfied when value >= threshold, Not satisfied when value < threshold.

Solved entries (count: 3):
[[record]]
compound = "COc1cc2c(cc1OCc1ccccc1)NC(=O)[C@@H]1CCCN1C2=O"
answer_label = "Satisfied"

[[record]]
compound = "O=c1c2cc([N+](=O)[O-])ccc2oc2nc3n(c(=O)c12)CCCS3"
answer_label = "Satisfied"

[[record]]
compound = "C=C1[C@@H]2CCC3[C@]4(C)C(CC[C@@]5(C)C(=O)O[C@H](O)[C@@H]45)[C@H](O)[C@]3(C2)[C@H]1OC1OC(CO)C(O)C(O)C1O (some centres undefined)"
answer_label = "Satisfied"


From here, focus on the item given below.
Quick check: does `CCCCn1c(=O)c(/C=C/C(=O)/C=C/c2cc3ccccc3n(CCCC)c2=O)cc2ccccc21` have TGI greater than or equal to 30 µM? Not satisfied

* * *

- System: SF-539 CNS
- assay_overview: NCI tumour cell line growth inhibition, 48 h
Here the recorded TGI is given for each entry.

[[record]]
compound = "O=C(O)c1ccc(SSc2ccc(C(=O)O)cn2)nc1"
reading = "> 100 µM"

[[record]]
compound = "COc1cc2cnc3c4cc(OCc5ccccc5)ccc4ccc3c2cc1OC"
reading = "> 100 µM"

[[record]]
compound = "O=C1CSC(c2c[nH]c3ccccc23)N1c1ccc(Cl)cc1Cl (stereo not given)"
reading = "> 100 µM"

[[record]]
compound = "COc1ccc2c(c1)CN1CCc3c(cc(OC)c(OC)c3OC)C1C2 (stereo not given)"
reading = "> 100 µM"

[[record]]
compound = "c1cncc(CSc2nc3ccccc3nc2-c2cccs2)c1"
reading = "> 100 µM"

[[record]]
compound = "NCCCCNCCCN1CCOC1=O"
reading = "> 100 µM"

[[record]]
compound = "CC(C)c1ccc(NC(=O)Cc2ccc(Nc3ncnc4cc(-c5cnn(CCN(C)C)c5)ccc34)cc2)cc1"
reading = "2.39 µM"

[[record]]
compound = "C[C@@H]1CC[C@@]2(NC1)O[C@H]1C[C@H]3[C@@H]4CC[C@H]5C[C@@H](O)CC[C@]5(C)[C@H]4CC[C@]3(C)[C@H]1[C@@H]2C"
reading = "77.6 µM"


Lab note: need TGI for `COc1ccc(-c2cc(=O)c3c(O)c(OC)c(OC)c(OC)c3o2)cc1` on SF-539 CNS, anyone have it? > 100 µM

Which TGI is reported with SF-539 CNS for this entry: `COC(=O)[C@H](Cc1cn(C)cn1)NC(=O)[C@H](Cc1ccccc1)NC(=O)Nc1cc(C(F)(F)F)cc(C(F)(F)F)c1` ? 33 µM

* * *

- System: NCI-H460 lung
Entry note: the call must match one of YES for active, NO for inactive

Consider the worked cases shown below.
[[record]]
compound = "C[N+](C)=c1ccc2nc3c(cc(NCCCNc4cc5oc6cc(=[N+](C)C)ccc-6nc5c5ccccc45)c4ccccc43)oc-2c1"
answer_label = "NO"

[[record]]
compound = "CC1SC(c2ccc(Cl)cc2Cl)N(NC(=O)C(O)c2ccccc2)C1=O (stereo not given)"
answer_label = "NO"

[[record]]
compound = "Nc1cccc2c1C(=O)c1cccc(NC(=O)c3ccccc3)c1C2=O"
answer_label = "YES"

[[record]]
compound = "O=C1c2cc3c(cc2-c2c1c1ccc(Cl)cc1c(=O)n2CCCn1ccnc1)OCO3"
answer_label = "YES"


Hey, what did the test say about CC(C)(C)OC(=O)Nc1ccc2c(c1)C(NC(=O)Nc1cccc(C#N)c1)CC(C)(C)O2 (stereo not given) ? NO

* * *

- System: BT-549 breast
- assay_overview: NCI tumour cell line growth inhibition, 48 h
The entries below are paired with their reported TGI.

Entry under review: `N#Cc1cc(S(=O)(=O)Nc2nc3ccccc3o2)c(SCc2ccccc2)cc1Cl` . Reported TGI? 41.3 µM

Please look up its TGI: `CCOC(=O)[C@@H](Cc1ccc(CCl)cc1)NC(C)=O` > 100 µM

GET /values?readout=TGI&item= `CCN(Cc1c(F)cccc1Cl)c1ccc(CO)c(Cl)c1` 31.2 µM

Using the record for `CCn1c(-c2nonc2N)nc2c(N3CCCC3)nccc21` , report its TGI. > 25 µM

What TGI value was documented for this compound, O=c1[nH]c(=O)n(C2CC(O)C(CO)O2)cc1C(F)(F)F (stereo unspecified) ? > 100 µM

What does the data say about its TGI? Entry: `C=CN(C=C)C(=O)Cn1cc(-c2ccccc2)nn1` > 100 µM

* * *

- Tested on: PC-3 prostate
- assay_overview: NCI tumour cell line growth inhibition, 48 h
metric: GI50

[[record]]
compound = "C[N+](C)=c1ccc2nc3c(cc(NCCCNc4cc5oc6cc(=[N+](C)C)ccc-6nc5c5ccccc45)c4ccccc43)oc-2c1"
reading = "1.2 µM"

[[record]]
compound = "N#Cc1cccc(C2C3=C(COC3=O)N(CCO)c3cc4c(cc32)OCO4)c1 (centres undefined)"
reading = "1.62 µM"

[[record]]
compound = "O=C(/C=C/C12c3ccccc3C(c3ccccc31)C1C(=O)NC(=O)C12)c1ccccc1 (centres undefined)"
reading = "1.62 µM"

[[record]]
compound = "N#CC1=C(N)NC(=O)NC12Nc1ccccc1N2"
reading = "> 100 µM"

[[record]]
compound = "O=C1NC(c2ccccc2)C2(C(=O)O)CN(C3CC3)c3cc(N4CCNCC4)c(F)cc3C2N1 (centres undefined)"
reading = "> 100 µM"

[[record]]
compound = "Cc1cc(O)c(-c2ccc([C@@H](C)CN(C)C)cc2)c2c1[nH]c(=O)c1sccc12"
reading = "0.667 µM"


Given the entry COc1cc(/C=C2\CCCC3=C2N=C2SC(C)=NN2C3c2cc(OC)c(OC)c(OC)c2)cc(OC)c1OC (centres undefined) , report its measured GI50. > 100 µM

I would be grateful if you could share the reported GI50 for `CN1CCN(CCCOc2cc(O)c3c(=O)cc(-c4ccccc4)oc3c2)CC1` . 31.4 µM

Fill in: GI50 of `COc1ccc2[nH]c(C(=O)OCc3ccc4c(Cl)cc(Cl)c(O)c4n3)cc2c1` is ___ 0.99 µM

* * *

- Tested on: A549 NSCLC
- assay_overview: NCI tumour cell line growth inhibition, 48 h
metric: TGI

[[record]]
compound = "CCN(CC)C(=S)N/N=C(/c1ccccc1)c1ccccn1"
reading = "> 39.7 µM"

[[record]]
compound = "CSc1nc(=O)c2nc(-c3cccs3)c(-c3cccs3)nc2n1C"
reading = "> 100 µM"

[[record]]
compound = "CSc1nc(Cl)c2c(n1)Sc1nc3ccccc3n1C2O (centres undefined)"
reading = "> 96.4 µM"


Find the recorded TGI belonging to `Clc1ccc(/C(=C/c2ccccc2)Cn2ccnc2)cc1` and report it. > 100 µM

Which TGI is reported for this compound? `C[C@H]1C=C2C(=O)O[C@H]3CC[C@@H](C1)[C@@]23O` 34.3 µM

Please report the recorded TGI for `CC(=O)[O-].N.N.N.N.[Co+3].[O-][Cl+3]([O-])([O-])[O-].[OH3+]` . > 100 µM

I would be grateful if you could share the reported TGI for O=C1NC2C(O)CCCCC2C12CCCCC2 (centres undefined) . > 100 µM

Item `COc1cc(N=Nc2ccc(OC)c(S(=O)(=O)O)c2)c(C)cc1N=Nc1ccc(/C=C/c2ccc(N=[N+]([O-])c3ccc(/C=C/c4ccc(N=Nc5cc(C)c(N=Nc6ccc(OC)c(S(=O)(=O)O)c6)cc5OC)cc4S(=O)(=O)O)c(S(=O)(=O)O)c3)cc2S(=O)(=O)O)c(S(=O)(=O)O)c1` has what recorded TGI? > 100 µM

// query TGI value for entry `CC(C)(C)c1ccnc(N=C2N=C(Nc3cc(C(C)(C)C)ccn3)c3ccccc32)c1` 62.3 µM
